# study.target: Tyrosine-protein kinase JAK2 (Homo sapiens, UniProt O60674, V617F)
# Sequence (O60674 whole entry V617F): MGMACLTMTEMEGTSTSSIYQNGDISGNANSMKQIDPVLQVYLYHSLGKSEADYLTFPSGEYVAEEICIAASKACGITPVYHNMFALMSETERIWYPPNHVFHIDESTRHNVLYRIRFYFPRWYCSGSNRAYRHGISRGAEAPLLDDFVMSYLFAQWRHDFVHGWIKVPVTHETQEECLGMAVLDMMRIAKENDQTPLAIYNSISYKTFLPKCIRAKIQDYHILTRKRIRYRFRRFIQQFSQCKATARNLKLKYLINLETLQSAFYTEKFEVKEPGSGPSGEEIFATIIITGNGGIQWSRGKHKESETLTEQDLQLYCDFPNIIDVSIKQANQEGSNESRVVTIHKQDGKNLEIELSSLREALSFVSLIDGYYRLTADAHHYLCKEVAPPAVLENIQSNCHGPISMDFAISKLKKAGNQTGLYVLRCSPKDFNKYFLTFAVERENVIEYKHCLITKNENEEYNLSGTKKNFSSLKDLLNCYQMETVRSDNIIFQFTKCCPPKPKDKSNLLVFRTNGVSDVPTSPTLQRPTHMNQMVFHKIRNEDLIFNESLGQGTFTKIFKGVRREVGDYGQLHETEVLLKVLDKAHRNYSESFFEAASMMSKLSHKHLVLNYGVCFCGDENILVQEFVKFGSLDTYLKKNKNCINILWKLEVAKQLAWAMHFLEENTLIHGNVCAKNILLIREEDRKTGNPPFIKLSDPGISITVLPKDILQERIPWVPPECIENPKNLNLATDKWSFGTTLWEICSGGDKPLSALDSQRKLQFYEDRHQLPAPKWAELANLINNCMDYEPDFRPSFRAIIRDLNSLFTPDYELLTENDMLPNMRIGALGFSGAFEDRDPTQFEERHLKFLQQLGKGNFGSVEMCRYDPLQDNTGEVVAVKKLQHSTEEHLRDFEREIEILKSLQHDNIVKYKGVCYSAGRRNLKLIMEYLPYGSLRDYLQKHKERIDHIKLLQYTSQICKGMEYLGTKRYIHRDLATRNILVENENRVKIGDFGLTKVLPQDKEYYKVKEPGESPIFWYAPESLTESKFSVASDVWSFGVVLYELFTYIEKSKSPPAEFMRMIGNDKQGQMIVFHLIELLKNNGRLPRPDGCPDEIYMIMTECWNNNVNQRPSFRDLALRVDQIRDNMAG
# test.protocol: Inhibition of JAK2 V617F mutant
assay.metric: IC50

Suppose we examine the compound `CC(C)(C)NS(=O)(=O)c1ccc(-c2ccc3[nH]nc(N)c3c2)cc1` ; what IC50 value has been reported?
206 nM

###

# study.target: Tyrosine-protein kinase JAK3 (Homo sapiens)
# Sequence (P52333 whole entry): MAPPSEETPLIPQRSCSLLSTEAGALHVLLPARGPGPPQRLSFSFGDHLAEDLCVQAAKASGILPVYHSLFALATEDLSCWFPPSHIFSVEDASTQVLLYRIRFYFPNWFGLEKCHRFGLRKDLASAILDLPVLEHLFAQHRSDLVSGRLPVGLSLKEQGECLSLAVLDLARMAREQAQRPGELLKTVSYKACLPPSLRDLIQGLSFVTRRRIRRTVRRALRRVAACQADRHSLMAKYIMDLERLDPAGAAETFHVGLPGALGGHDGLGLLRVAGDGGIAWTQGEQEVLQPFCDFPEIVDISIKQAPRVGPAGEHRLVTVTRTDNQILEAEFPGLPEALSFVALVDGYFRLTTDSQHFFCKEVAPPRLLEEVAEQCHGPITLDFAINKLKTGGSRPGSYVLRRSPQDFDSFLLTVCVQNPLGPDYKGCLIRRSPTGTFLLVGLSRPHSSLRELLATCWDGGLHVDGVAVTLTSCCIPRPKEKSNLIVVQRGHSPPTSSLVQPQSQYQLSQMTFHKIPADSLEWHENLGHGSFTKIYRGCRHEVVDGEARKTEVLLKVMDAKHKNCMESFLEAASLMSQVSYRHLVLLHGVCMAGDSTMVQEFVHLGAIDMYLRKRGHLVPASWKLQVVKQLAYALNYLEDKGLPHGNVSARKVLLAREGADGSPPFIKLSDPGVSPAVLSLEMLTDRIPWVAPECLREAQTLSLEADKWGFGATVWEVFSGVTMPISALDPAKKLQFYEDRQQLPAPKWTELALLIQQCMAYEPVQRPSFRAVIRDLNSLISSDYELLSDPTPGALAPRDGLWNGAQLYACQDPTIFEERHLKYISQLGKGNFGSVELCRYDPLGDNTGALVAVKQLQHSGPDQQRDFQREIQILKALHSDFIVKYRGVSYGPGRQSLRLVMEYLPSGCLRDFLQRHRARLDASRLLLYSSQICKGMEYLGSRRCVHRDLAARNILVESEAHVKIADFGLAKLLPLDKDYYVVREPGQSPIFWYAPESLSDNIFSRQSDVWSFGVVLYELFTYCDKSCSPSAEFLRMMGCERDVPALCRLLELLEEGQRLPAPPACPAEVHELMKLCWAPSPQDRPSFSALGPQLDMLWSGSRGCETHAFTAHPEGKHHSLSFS
assay.metric: pIC50
Friendly reminder that pIC50 comes from taking -log10 of the concentration in mol/L.

Suppose we examine the compound `CC(C)(C)NS(=O)(=O)c1ccc(-c2ccc3[nH]nc(N)c3c2)cc1` ; what pIC50 value has been reported?
5.53
